# credit: PubChem BioAssay (NCI)

Would you mind telling me the reported TGI of each entry?
tested on: HCC-2998 colon; test: NCI tumour cell line growth inhibition, 48 h

Problem: Recorded TGI for CC12CC(Sc3ccccc3N1)c1ccccc1O2 (stereo not drawn) , please?
Solution: 31 µM

Problem: What do you get for CC(OC(=O)N(N(CCCl)S(C)(=O)=O)S(C)(=O)=O)c1ccc([N+](=O)[O-])cc1 (stereo not drawn) ?
Solution: > 100 µM

Problem: What do you get for CC12CCC(O)CC1=CCC1C2CCC2(C)C(c3cccnc3)=CCC12 (stereo not drawn) ?
Solution: > 100 µM

###

system: MOLT-4 leukemia; experiment: NCI tumour cell line growth inhibition, 48 h
endpoint: TGI

Problem: Recorded TGI for Cc1ccc(S(=O)(=O)SCc2ccccc2)cc1 , please?
Solution: 6.22 µM

Problem: What do you get for CC(=O)NC1=C(Sc2ccc(Cl)cc2)C(=O)c2ccccc2C1=O ?
Solution: 1.7 µM

Problem: What do you get for O=C1CCC2(c3ccccc3)Nc3ccc(Cl)cc3N12 (stereo not given) ?
Solution: > 100 µM

Problem: What do you get for COc1cc(C(=O)OCCn2[nH]c(-c3ccc(Cl)cc3)nc2=S)cc(OC)c1OC ?
Solution: > 100 µM

Problem: What do you get for CC(=O)/C(=C\c1c(-c2ccccc2)[nH]c2ccccc12)S(=O)(=O)c1ccccc1 ?
Solution: 6.39 µM

Problem: What do you get for Cc1nnc([C@@]2(C)CC[C@H]3[C@@H](CCC4=CC(=O)CC[C@@]43C)[C@@H]2CC#N)o1 ?
Solution: > 100 µM

Problem: What do you get for CCN(CC)CCNC(=O)c1nn(-c2ccc(Cl)cc2)c2c1CCc1cc(OC)ccc1-2 ?
Solution: 28.5 µM

Problem: What do you get for CC1(C)N=C(N)N=C(N)N1c1ccc(Cl)c(Cl)c1 ?
Solution: > 100 µM

Problem: What do you get for CN1CCN(c2ccc(C(=O)Nc3cccc(C#Cc4cccc5[nH]nc(N)c45)c3)cc2C(F)(F)F)CC1 ?
Solution: 1.57 µM

Problem: What do you get for O=C1CCCN1CCCN=c1cc2n(-c3ccc(Cl)cc3)c3ccccc3nc-2cc1Nc1ccc(Cl)cc1 ?
Solution: 27 µM
